- Subject Of Test: T1, Fus1, P11710
- T1 sequence (P11710 432-512, looked up): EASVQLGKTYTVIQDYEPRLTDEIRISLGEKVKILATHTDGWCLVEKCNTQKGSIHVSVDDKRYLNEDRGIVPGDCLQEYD
- Test Summary: SPOT array
- Condition Details: median of control spots 1200
SPOT intensity values, listed per item
The answer should be written as a number, with no unit following it.

In the examples that follow, each entry is paired with its recorded SPOT intensity.
Ask: # input binder: "RVRKTHVPASKRPSG" ; wanted: its SPOT intensity
Result: 5

Ask: Another: "ALRRRLPVTRSKINW"
Result: 25

Ask: Another: "GLRRARYKFPGQQKI"
Result: 14

Kindly consider the entry below.
Ask: # input binder: "VYTRTAFQIPGDDKI" ; wanted: its SPOT intensity
Result: 0
